biological target: STK3 Catalytic domain+SARAH (Homo sapiens); construct: for 8, we also made a longer version containing one or more additional domains; His-tag; made in house; host or cells: Escherichia coli; assay: Differential Scanning Fluorimetry (DSF) Tm shift; format: binding; conditions: 2 µM protein, 10 µM inhibitor, average of 3 experiments, each in duplicate
Sequence (Q13188 whole entry, the tested form may be a part): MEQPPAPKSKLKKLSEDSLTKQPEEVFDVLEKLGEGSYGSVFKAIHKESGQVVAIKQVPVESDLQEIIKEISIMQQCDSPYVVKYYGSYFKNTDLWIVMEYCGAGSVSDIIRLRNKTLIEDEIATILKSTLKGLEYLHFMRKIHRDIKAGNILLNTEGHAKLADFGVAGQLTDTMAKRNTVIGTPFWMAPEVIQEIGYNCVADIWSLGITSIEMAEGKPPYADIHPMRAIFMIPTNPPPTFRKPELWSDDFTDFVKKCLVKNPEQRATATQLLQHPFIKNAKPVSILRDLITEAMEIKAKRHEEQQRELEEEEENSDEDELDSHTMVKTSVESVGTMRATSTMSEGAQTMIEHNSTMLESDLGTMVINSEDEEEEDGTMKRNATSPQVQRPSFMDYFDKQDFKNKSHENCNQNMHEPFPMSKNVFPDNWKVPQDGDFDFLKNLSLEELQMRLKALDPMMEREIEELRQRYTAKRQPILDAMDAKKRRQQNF
Assign 1.0 to entries whose Melting temperature (Tm) shift meets or exceeds 0.5 degrees Celcius; assign 0.0 to the rest.

Please review the following examples before continuing.
[[record]]
compound = "NC(=O)Nc1sc(-c2ccccc2)cc1C(N)=O [IKK-2 Inhibitor VI]"
cat = 1.0

[[record]]
compound = "CS(=O)(=O)O.Cn1cc(C2=C(c3cn(CCCSC(=N)N)c4ccccc34)C(=O)NC2=O)c2ccccc21 [Ro-31-8220]"
cat = 1.0

[[record]]
compound = "O=C1Nc2ccc(I)cc2/C1=C1/Nc2ccccc2/C1=N\\O [Indirubin-3ʹ′-monoxime, 5-Iodo-, Indirubin-3′ -monoxime, 5-Iodo-]"
cat = 1.0


Hi team, for O=C1Cc2c([nH]c3ccc(Br)cc23)-c2ccccc2N1 [Kenpaullone] , is the recorded Melting temperature (Tm) shift at or above 0.5 degrees Celcius? 1.0

Hi team, for CCn1cnc2c(Nc3cccc(Cl)c3)nc(N[C@H]3CCCC[C@H]3N)nc21 [Cdk1 Inhibitor, CGP74514A] , is the recorded Melting temperature (Tm) shift at or above 0.5 degrees Celcius? 1.0

Hi team, for O=C(c1ccc(Nc2nccc(-c3cc4ccccc4s3)n2)cc1)N1CCC(N2CCCC2)CC1 [IKK Inhibitor VII] , is the recorded Melting temperature (Tm) shift at or above 0.5 degrees Celcius? 1.0

Hi team, for COc1cc2nccc(Oc3ccc(NC(=S)NC(=O)c4ccccc4C)cc3)c2cc1OC [PDGF RTK Inhibitor] , is the recorded Melting temperature (Tm) shift at or above 0.5 degrees Celcius? 0.0

Hi team, for O=C1Nc2ccc3ncsc3c2/C1=C/c1cnc[nH]1 [PKR Inhibitor] , is the recorded Melting temperature (Tm) shift at or above 0.5 degrees Celcius? 1.0

Hi team, for CN1C(=O)C(=C2Nc3ccccc3C2=NO)c2ccc(Br)cc21 [GSK-3 Inhibitor IX, Control, MeBIO] , is the recorded Melting temperature (Tm) shift at or above 0.5 degrees Celcius? 0.0

Hi team, for O=C1c2ccccc2-c2nc3nnnn3nc21 [PDK1/Akt/Flt Dual Pathway Inhibitor] , is the recorded Melting temperature (Tm) shift at or above 0.5 degrees Celcius? 0.0

Hi team, for COc1ccc2c(c1)c1c3c(c4c5ccccc5n(C)c4c1n2CC(O)CN(C)C)C(=O)NC3=O.Cl (stereo not drawn) [Gö 7874, Hydrochloride] , is the recorded Melting temperature (Tm) shift at or above 0.5 degrees Celcius? 1.0

Hi team, for Nc1ncnc2c1c(-c1ccc(Oc3ccccc3)cc1)cn2C1CCCC1 [Lck Inhibitor] , is the recorded Melting temperature (Tm) shift at or above 0.5 degrees Celcius? 0.0

Hi team, for Cl.NCCCn1cc(C2=C(c3c[nH]c4ccccc34)C(=O)NC2=O)c2ccccc21 [Bisindolylmaleimide III, Hydrochloride] , is the recorded Melting temperature (Tm) shift at or above 0.5 degrees Celcius? 1.0

----------
target: FES Catalytic Domain+SH2 (Homo sapiens, UniProt P07332); construct: for 8, we also made a longer version containing one or more additional domains; His-tag; made in house; host or cells: Escherichia coli; experiment: Differential Scanning Fluorimetry (DSF) Tm shift; assay type: binding; conditions: 2 µM protein, 10 µM inhibitor, average of 3 experiments, each in duplicate
Sequence (P07332 448-822 limits assumed): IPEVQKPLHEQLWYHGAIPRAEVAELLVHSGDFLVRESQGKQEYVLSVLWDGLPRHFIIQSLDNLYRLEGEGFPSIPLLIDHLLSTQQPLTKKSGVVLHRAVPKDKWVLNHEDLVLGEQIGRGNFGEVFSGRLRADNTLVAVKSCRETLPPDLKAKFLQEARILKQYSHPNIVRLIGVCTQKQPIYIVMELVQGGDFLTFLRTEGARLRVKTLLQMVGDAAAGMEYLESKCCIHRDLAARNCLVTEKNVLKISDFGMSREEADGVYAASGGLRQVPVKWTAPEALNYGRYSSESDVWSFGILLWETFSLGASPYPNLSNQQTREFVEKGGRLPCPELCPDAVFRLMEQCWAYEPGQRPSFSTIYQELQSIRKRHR
Assign Fulfilled to entries whose Melting temperature (Tm) shift meets or exceeds 0.3 degrees Celcius; assign Not fulfilled to the rest.

Please review the following examples before continuing.
[[record]]
structure_as_smiles = "Nc1ncnc2c1c(I)cn2[C@@H]1O[C@H](CO)[C@@H](O)[C@H]1O"
cat = "Not fulfilled"

[[record]]
structure_as_smiles = "COc1cc(Nc2ncc3ccn(-c4cccc(CCC#N)c4)c3n2)cc(OC)c1OC"
cat = "Fulfilled"

[[record]]
structure_as_smiles = "Cl.Cl.NCCNc1ncc(C(N)=O)c(Nc2cccc(C(F)(F)F)c2)n1"
cat = "Fulfilled"


Hi team, for `Brc1c(Br)c(Br)c2n[nH]nc2c1Br` , is the recorded Melting temperature (Tm) shift at or above 0.3 degrees Celcius? Fulfilled

Hi team, for `O=C1Cc2c([nH]c3ccc(Br)cc23)-c2ccccc2N1` , is the recorded Melting temperature (Tm) shift at or above 0.3 degrees Celcius? Not fulfilled
